Values were extracted from the supplement of paper PMC12667976.

Listing: AIRE transcriptional activation functional score of selected variants
B1: library; numbered along this chain (parent)
chain: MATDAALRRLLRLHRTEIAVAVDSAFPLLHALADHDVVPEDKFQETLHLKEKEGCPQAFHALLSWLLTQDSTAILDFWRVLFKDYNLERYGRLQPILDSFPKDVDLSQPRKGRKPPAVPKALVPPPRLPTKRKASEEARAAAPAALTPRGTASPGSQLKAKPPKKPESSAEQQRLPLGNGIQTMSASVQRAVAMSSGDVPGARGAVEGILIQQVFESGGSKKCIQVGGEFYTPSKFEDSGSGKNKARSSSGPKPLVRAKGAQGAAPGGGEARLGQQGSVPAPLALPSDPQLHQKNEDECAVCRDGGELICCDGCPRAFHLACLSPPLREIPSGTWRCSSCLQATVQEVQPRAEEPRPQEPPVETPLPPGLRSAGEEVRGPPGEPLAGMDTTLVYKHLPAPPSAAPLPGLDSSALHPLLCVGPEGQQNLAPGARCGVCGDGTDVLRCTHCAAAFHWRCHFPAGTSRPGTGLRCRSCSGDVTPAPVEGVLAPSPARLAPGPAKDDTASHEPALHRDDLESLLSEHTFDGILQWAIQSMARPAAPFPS

Variants of: B1
Test: AIRE transcriptional activation functional score (insulin promoter-GFP; nonsense median 0, synonymous median 1) (normalised score); higher = higher AIRE activity (more reporter activation)
Applied conditions: with insulin promoter-GFP reporter in HEK293
Reply: number alone, nothing else.

See these solved cases before continuing.
- Mutation notation: "L516S"
  Observed: 0.564
- Mutation notation: "R303K"
  Observed: 1.13
- Mutation notation: "V20Q"
  Observed: -0.25
- Mutation notation: "L81R"
  Observed: -0.201
- Mutation notation: "A264P"
  Observed: 0.912
- Mutation notation: "P266C"
  Observed: 1.09
- Mutation notation: "Q530W"
  Observed: -0.0706
- Mutation notation: "N86W"
  Observed: -0.448

Problem: Write down AIRE transcriptional activation functional score measured for item D70L
Solution: -0.362

Problem: Write down AIRE transcriptional activation functional score measured for item E508R
Solution: 0.154

Problem: Write down AIRE transcriptional activation functional score measured for item A144D
Solution: 0.251

Problem: Write down AIRE transcriptional activation functional score measured for item C437Y
Solution: 0.215

Problem: Write down AIRE transcriptional activation functional score measured for item M536A
Solution: 0.0376

Problem: Write down AIRE transcriptional activation functional score measured for item M194R
Solution: 0.732

Problem: Write down AIRE transcriptional activation functional score measured for item S464M
Solution: -0.078

Problem: Write down AIRE transcriptional activation functional score measured for item R465H
Solution: 0.546

Problem: Write down AIRE transcriptional activation functional score measured for item A141N
Solution: 0.447

Problem: Write down AIRE transcriptional activation functional score measured for item R328C
Solution: 0.932

Problem: Write down AIRE transcriptional activation functional score measured for item H35L
Solution: -0.231

Problem: Write down AIRE transcriptional activation functional score measured for item R465V
Solution: 0.453

Problem: Write down AIRE transcriptional activation functional score measured for item R473Q
Solution: 0.968

Problem: Write down AIRE transcriptional activation functional score measured for item A138L
Solution: 1.27

Problem: Write down AIRE transcriptional activation functional score measured for item G431L
Solution: 0.794

Problem: Write down AIRE transcriptional activation functional score measured for item K221Y
Solution: 0.0318

Problem: Write down AIRE transcriptional activation functional score measured for item H319W
Solution: 0.996

Problem: Write down AIRE transcriptional activation functional score measured for item C223I
Solution: 0.0416

Problem: Write down AIRE transcriptional activation functional score measured for item P497W
Solution: 0.669
